# Study target: T1, human DLL3 antigen protein (Kactus Biosystems, Cat. No. DLL-HM103) (human, UniProt Q9NYJ7 27-492)
# T1 sequence: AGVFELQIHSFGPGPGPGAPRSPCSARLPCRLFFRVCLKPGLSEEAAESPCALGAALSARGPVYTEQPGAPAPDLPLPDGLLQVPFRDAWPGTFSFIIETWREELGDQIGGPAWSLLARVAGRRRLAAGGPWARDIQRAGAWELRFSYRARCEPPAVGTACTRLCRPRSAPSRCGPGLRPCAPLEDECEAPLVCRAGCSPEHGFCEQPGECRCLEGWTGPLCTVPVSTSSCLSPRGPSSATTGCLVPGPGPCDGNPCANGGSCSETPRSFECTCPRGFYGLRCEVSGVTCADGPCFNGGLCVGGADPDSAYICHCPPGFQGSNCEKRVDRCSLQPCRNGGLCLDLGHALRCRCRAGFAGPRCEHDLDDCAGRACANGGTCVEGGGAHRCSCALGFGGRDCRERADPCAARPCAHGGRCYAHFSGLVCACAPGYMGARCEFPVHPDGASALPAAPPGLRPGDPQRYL
# Assay: SPR (Biacore 8K), antibody captured on anti-human Fc, DLL3 in solution
# Protocol: The affinity and kinetic properties of the humanized anti-DLL3 antibody to human DLL3 were analyzed using a Biacore 8K instrument. […] After completion of each cycle of the experiment, the captured antibody was removed together with the antigen by washing with a 3M MgCl₂ solution at a flow rate of 30 μL/min for 30 s to complete the regeneration of the chip. The raw data were analyzed using Biacore Insight Evaluation Software (3.0.12.15655) software and fitted with a (1:1) Langmuir model.
Reported kon values follow for various binders
Kindly answer with a numeric value in M⁻¹ s⁻¹, unit omitted.

DLL3-3 camelid-derived anti-DLL3 chimeric antibody (antibody, human IgG1, V domains shown) VH: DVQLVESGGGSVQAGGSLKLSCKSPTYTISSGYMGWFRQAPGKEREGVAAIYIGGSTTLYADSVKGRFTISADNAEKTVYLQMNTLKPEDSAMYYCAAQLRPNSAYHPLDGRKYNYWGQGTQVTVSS; 2.15e+06

In: What value of kon has been reported for the following binder? hDLL3-3-2 camelid-derived humanized anti-DLL3 antibody (antibody, V domains shown) VH: EVQLVESGGGLVQPGGSLRLSCKSPTYTISSGYMGWFRQAPGKEREGVAAIYIGGSTTLYADSVKGRFTISRDNSKNTLYLQMNSLRAEDTAVYYCAAQLRPNSAYHPLDGRKYNYWGQGTLVTVSS
Out: 1.95e+06

In: What value of kon has been reported for the following binder? hDLL3-26 camelid-derived humanized anti-DLL3 antibody (antibody, V domains shown) VH: EVQLVESGGGLVQPGGSLRLSCAASGDIYSSSYVGWFRQAPGKEREGVAIIYTSGDSTYYADSVKGRFTISRDNSKNTLYLQMNSLRAEDTAVYYCAARFAIDNSNYWGQGTLVTVSS
Out: 210000
